In this section, each of the compounds is paired with its reported z-score.
Test: PSAC antagonists in infected red cells, primary screen, cell-based, P. falciparum Indochina, OD700, 2 h (AID 1155);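 further: lysis reports solute entry through the parasite surface anion channel PSAC; channel blockers reduce lysis of infected cells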
Settings: P. falciparum Indochina infected erythrocytes, osmotic lysis OD700; higher = more signal, called active from +8 up or from −8 down
Number, no unit, nothing else.

compound CCc1cccc(NC(=O)O[C@H]2[C@H](OC(=O)Nc3ccc4c(c3)OCO4)[C@@H](OC(=O)Nc3ccc4c(c3)OCO4)[C@@H](OC)O[C@@H]2CO)c1 , z-score observed: 1.22

compound Cc1cc(C)c(-c2cc([C@H](C)ON=C3[C@H]4CCn5c(=O)n(-c6ccccc6)c(=O)n5[C@H]4[C@H](O)[C@@H]4O[C@H]34)on2)c(C)c1 , z-score observed: 0.322

compound C=CCNC(=O)[C@H]1[C@@H]2C(=O)O[C@@H](c3ccccc3)[C@@H](c3ccccc3)N2[C@@H](c2ccc(O)cc2)[C@]12C(=O)N(C(=O)OCCOC)c1ccc(C#CC3=CCCCC3)cc12 , z-score observed: 0.929

----------
In this section, each of the compounds is paired with its reported z-score.
Assay: P. aeruginosa biofilm formation inhibitors, primary screen, strain PAO1, LB-PBS medium, absorbance 600 nm (AID 1176); further: test concentration not given here
Details: P. aeruginosa PAO1 growth/biofilm, A600, 12 h; higher = more signal
Number, no unit, nothing else.

Below: 5 compounds and their reported z-score.
> print(dat)
                                   compound  readout  experimental.value
1  CCCNC(=O)[C@@H]1c2ccccc2C(=O)N(c2ccc(C)cn2)[C@H]1c1ccc(CO)cc1  z-score               0.388
2  CC(=O)OC[C@H]1O[C@@H](ON=C[C@@H](C)[C@H](OCc2ccccc2)C(C)C)[C@H](OC(C)=O)[C@@H](OC(C)=O)[C@@H]1OC(C)=O  z-score                1.01
3  COc1ccc([Si](C)(C)[C@H]2[C@H](CC(=O)N3CCC[C@H]3CO)O[C@@]3(C(=O)N(Cc4cccc(N5C(=O)COc6ccccc65)c4)c4ccccc43)[C@@H]2C)cc1  z-score                1.85
4  CO[C@@H]1COC(=O)[C@@H]2CCCN2C(=O)[C@@H](C)COC(=O)[C@H](COCc2ccccc2)NC(=O)CC=C[C@H]1C  z-score              -0.455
5  CN1C(=O)C2C(C1=O)C1C=C(CCCO)C2C(c2ccc(CN3CCCC3)cc2)N1C (configuration not stated)  z-score               -1.02

compound CCCNC(=O)[C@@H]1c2ccccc2C(=O)N(Cc2ccccc2Cl)[C@H]1c1ccc(CO)cc1 , z-score observed: -0.217

compound [N-]=[N+]=Nc1ccccc1C[C@@]1(C(N)=O)N=C(c2ccc(OCCCO)cc2)O[C@@H]1c1ccccc1 , z-score observed: 0.218

----------
Target: Fibroblast growth factor 2 (Homo sapiens) (UniProt P09038)
Sequence (P09038 whole entry, looked up): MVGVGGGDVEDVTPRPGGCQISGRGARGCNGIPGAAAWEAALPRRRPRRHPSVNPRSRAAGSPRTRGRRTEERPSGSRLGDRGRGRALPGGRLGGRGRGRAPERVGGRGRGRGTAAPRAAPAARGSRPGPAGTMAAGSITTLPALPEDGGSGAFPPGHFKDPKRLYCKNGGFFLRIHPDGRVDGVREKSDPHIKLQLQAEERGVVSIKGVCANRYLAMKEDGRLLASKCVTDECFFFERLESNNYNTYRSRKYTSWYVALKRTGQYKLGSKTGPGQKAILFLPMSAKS
Assay: FGF2 binders on small-molecule microarrays, primary screen, biochemical, small-molecule microarray, 635/667 nm fluorescence (AID 1133)
Conditions: small-molecule microarray binding, FGF2, fluorescence 635/667; higher = more signal
readout: composite z-score
Number, no unit, nothing else.

> print(dat)
                                   compound                              assay.target  experimental.value
1  CC(=O)OC[C@H]1O[C@H](CC=NOC[C@@H](C)[C@H](OCc2ccccc2)C(C)C)C=C[C@@H]1OC(C)=O  Fibroblast growth factor 2 (Homo sapiens) (UniProt P09038)               0.155
2  COC(=O)[C@H](C)NC(=O)CCC1CC(OC(=O)NCCc2ccc(F)cc2)CC2(CCCC(COC(=O)NCC(c3ccccc3)c3ccccc3)O2)O1 (stereo partly specified)  Fibroblast growth factor 2 (Homo sapiens) (UniProt P09038)              0.0725
3  Cn1c(=O)n2n(c1=O)[C@H]1[C@H](O)[C@@H]3O[C@@H]3C(=NOC[C@@H](O)COCc3ccco3)[C@H]1CC2  Fibroblast growth factor 2 (Homo sapiens) (UniProt P09038)               0.468
4  CC(C)(C)N1C(=O)[C@H]2[C@H]3[C@H](O)[C@H](O)CC(=NO[C@@H]4O[C@H](CO)[C@@H](O)[C@H](O)[C@H]4O)[C@@H]3CC[C@H]2C1=O  Fibroblast growth factor 2 (Homo sapiens) (UniProt P09038)               0.762

compound COC(=O)[C@@]1(Cc2ccccc2)[C@H]2c3cc(C(=O)N4CCCC4)n(Cc4ccccn4)c3C[C@H]2CN1C(=O)c1ccccc1 , composite z-score observed: 0.354

compound CCN1C(=O)[C@H]2[C@H]3[C@H](O)C=CC(=O)[C@@H]3CC[C@H]2C1=O , composite z-score observed: 0.731

compound COc1ccc(CCNC(=O)[C@@H]2c3ccccc3C(=O)N(c3ccc(C)cn3)[C@H]2c2ccc(CO)cc2)cc1 , composite z-score observed: -0.609

compound C[C@@H]1C=CCC(=O)OC[C@H](C)C(=O)N2CCC[C@H]2C(=O)OC1 , composite z-score observed: 1.74

compound C=COC[C@H]1CN2[C@@H](CC[C@@H](C)[C@@H]2c2ccc(Br)cc2)C(=O)O1 , composite z-score observed: 0.706

compound O=C(CS)NCCCCCNC(=O)[C@H]1C[C@H]2C(=O)N3CCC[C@H]3C(=O)N2[C@H]1c1cccc(OCCO)c1 , composite z-score observed: 1.92

compound COCC1=C2[C@@H](CCc3ccccc3)OB(O)C[C@@H]2n2c(=O)n(-c3ccccc3)c(=O)n2C1 , composite z-score observed: 0.506

compound O=C1C[C@@H](O)[C@@H](O)[C@@H]2[C@@H]3C(=O)N(C4CCCCC4)C(=O)[C@@H]3CC[C@H]12 , composite z-score observed: 0.521

compound CC(C)NC(=O)[C@@H]1c2ccccc2C(=O)N(CC23CC4CC(CC(C4)C2)C3)[C@H]1c1ccc(CO)cc1 , composite z-score observed: 0.615

compound COc1ccccc1CN1C(=O)c2ccccc2[C@@]2(Cc3ccccc3N(C(C)C)C2=O)[C@@H]1c1ccc(CO)cc1 , composite z-score observed: -0.609

compound CCOC(=O)CCN1C(=O)[C@H]2[C@H]3[C@H](O)[C@H](O)CC(=O)[C@H]3CC[C@H]2C1=O , composite z-score observed: 0.364

compound COc1ccc(OC[C@H]2Cc3c(-c4ccccc4)nc4c(c3CO2)CN(CCOc2ccccc2)CC4)cc1 , composite z-score observed: 0.596

----------
In this section, each of the molecules is paired with its reported composite z-score.
Assay: small-molecule microarray binders of probe aDKK1, primary screen, biochemical, biotinylated probe, 635/667 nm fluorescence (AID 1099);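 further: score merges 667nm spot fluorescence with signal to noise across triplicate slides; reference of the scale not given here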
Conditions: higher = more signal
Number, no unit, nothing else.

> print(dat)
                                   molecule  experimental.value
1  CC(C)(C)N1C(=O)[C@H]2[C@H]3[C@H](O)[C@H](O)CC(=NOCc4ccccc4)[C@@H]3CC[C@H]2C1=O              -0.192
2  [N-]=[N+]=NCc1ccccc1C[C@]1(C(=O)NCc2ccccc2)N=C(c2ccc(OCCCO)cc2)O[C@H]1c1ccccc1N=[N+]=[N-]               0.658

Please examine the following record next.
molecule O=C1CCCC2OC12C(O)CCc1ccccc1 (configuration not stated) , composite z-score observed: -0.45

----------
In this section, each of the molecules is paired with its reported z-score.
Test: modulators of S6 phosphorylation in cells, primary screen, cell-based, A549, cytoblot, luminescence, serum-stimulated (AID 1158);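 further: serum-stimulated A549 lung adenocarcinoma cells; signal is phosphorylated S6 detected by cytoblot immunostaining with HRP secondary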
Settings: A549 phospho-S6 cytoblot, 5 h, higher = more signal
Number, no unit, nothing else.

Below: 3 molecules and their reported z-score.
> print(dat)
                                   molecule  experimental.value
1  CCc1cc2c(nc1CC)CCN(CCC(C)=NOC[C@@H](O)[C@H]1O[C@@H]3OC(C)(C)O[C@@H]3[C@H]1O)C2              -0.512
2  CC=CC1=C(CO)[C@H](O)[C@H]2O[C@H]2[C@H]1O               0.318
3  CN(C)CCCNC(=O)[C@@H]1c2ccccc2C(=O)N(Cc2cc(F)cc(C(F)(F)F)c2)[C@H]1c1ccc(CO)cc1               0.269

Please examine the following record next.
molecule O=C1C2C=CC(C(O)c3ccc([N+](=O)[O-])cc3)N(Nc3ccc([N+](=O)[O-])cc3)C2C(=O)N1c1ccccc1 (stereo not drawn) , z-score observed: -0.922

----------
Assay: S. cerevisiae growth modulation with rapamycin, primary screen, strain BY4716, OD600, 96 h (AID 1091); further: test concentration not given here
Conditions: higher = more signal, called active from +8 up or from −8 down
Decide by z-score: equal to or exceeding -0.1 means Yes, less means No.

compound	class assignment
CC(C)OC(=O)C=C1C[C@@H](c2ccc(C#N)cc2)O[C@@H](c2ccc(C#N)cc2)O1	Yes
COC(=O)CC=C[C@@H](C)[C@@H](C=NO[C@@H](C)c1cc(-c2c(C)cc(C)cc2C)no1)OC	Yes
O=C1C2C=CC(C(O)c3ccc([N+](=O)[O-])cc3)N(Nc3ccc([N+](=O)[O-])cc3)C2C(=O)N1c1ccccc1 (centres undefined)	Yes
CN1C(=O)C2C=CC(C(O)c3ccc(I)cc3)N(NC(=O)OC(C)(C)C)C2C1=O (centres undefined)	Yes

Exam item: Could you please find out whether CC(C)(C)N1C(=O)[C@H]2[C@H]3[C@H](O)[C@H](O)CC(=NO[C@@H]4O[C@H](CO)[C@@H](O)[C@H](O)[C@H]4O)[C@@H]3CC[C@H]2C1=O has z-score that meets -0.1 or exceeds it?
Marked response: No

Exam item: Could you please find out whether C=C(COC)/C(=C/C[C@H](OC(=O)c1ccncc1)c1ccc(CO)o1)c1cc(C(=O)OC)ccc1OC has z-score that meets -0.1 or exceeds it?
Marked response: No

Exam item: Could you please find out whether C[C@@H]1C=CCC(=O)OC[C@H](C)C(=O)N[C@@H](C)C(=O)OC1 has z-score that meets -0.1 or exceeds it?
Marked response: No

Exam item: Could you please find out whether C=CCNC(=O)[C@H]1[C@@H]2C(=O)O[C@@H](c3ccccc3)[C@@H](c3ccccc3)N2[C@@H](c2ccc(O)cc2)[C@]12C(=O)N(C(=O)OCCOC)c1ccc(C#CC3=CCCCC3)cc12 has z-score that meets -0.1 or exceeds it?
Marked response: Yes

Exam item: Could you please find out whether CO[C@@H]1COC(=O)CC=C[C@@H](C)COC(=O)[C@H](COCc2ccccc2)NC(=O)CC=C[C@H]1C has z-score that meets -0.1 or exceeds it?
Marked response: Yes

Exam item: Could you please find out whether COc1ccc(O[C@H]2C=C[C@@H](c3ccccc3)O[C@@H]2COC(=O)CCC(C)=NOC[C@@H](C)[C@H](OCc2ccccc2)C(C)C)cc1 has z-score that meets -0.1 or exceeds it?
Marked response: No

Exam item: Could you please find out whether CCOC(=O)C[C@H]1[C@H](OC(=O)c2cc3ccccc3oc2=O)[C@@H](NC(=O)c2ccc3ccccc3n2)c2cc(OCCCO)ccc2N1C(=O)c1ccccc1 has z-score that meets -0.1 or exceeds it?
Marked response: Yes

Exam item: Could you please find out whether CCOC(=O)[C@H](CC(C)C)NC(=O)CCC1CC(OC(=O)NCc2cccc3ccccc23)CC2(CCCC(COC(=O)NCCN3CCOCC3)O2)O1 (some centres undefined) has z-score that meets -0.1 or exceeds it?
Marked response: No
